Hello, the source for this data is PubChem BioAssay (Tox21), in case you need it.

Can you tell me activity change, positive = activation for the items I'm about to list?
method: qHTS assay to identify small molecule agonists of the estrogen related receptor (ERR) signaling pathway from Tox21 library (AID 1224849); note: % is set by controls: 0 for no effect and ±100 for the full control effect; nearly all actives have a fitted effect of over 15% in size
condition.notes: ERR reporter cell line, ONE-Glo luciferase, 18 h; at 92.4 µM (top of the series)
Answers are plain numbers, in %.

Ask: Entry `CC1(C)O[C@@H]2[C@@H](CO[C@@]3(COS(N)(=O)=O)OC(C)(C)O[C@@H]23)O1` has what activity change, positive = activation?
Reply: -14.9

Batch: activity change, positive = activation for all items listed.
1. COC(=O)c1ccc(C=O)cc1
2. C[C@]12CC[C@@H]3c4ccc(O)cc4C[C@@H](CCCCCCCCCS(=O)CCCC(F)(F)C(F)(F)F)[C@H]3[C@@H]1CC[C@@H]2O (some centres not stated)
3. CCCCNC(=O)NS(=O)(=O)c1ccc(N)cc1
4. O=C(OCc1ccccc1)c1ccccc1
5. OCCCc1ccccc1

Reply:
1: -0.881; 2: -37.7; 3: 2.9; 4: 13.6; 5: 4.65

Ask: Entry `CCN(CC)CCOC(=O)c1ccc(N)cc1` has what activity change, positive = activation?
Reply: 2.93

---

target.or.test.system: Cytochrome P450 2C9 (Homo sapiens) (UniProt P11712)
Sequence (P11712 whole entry, looked up): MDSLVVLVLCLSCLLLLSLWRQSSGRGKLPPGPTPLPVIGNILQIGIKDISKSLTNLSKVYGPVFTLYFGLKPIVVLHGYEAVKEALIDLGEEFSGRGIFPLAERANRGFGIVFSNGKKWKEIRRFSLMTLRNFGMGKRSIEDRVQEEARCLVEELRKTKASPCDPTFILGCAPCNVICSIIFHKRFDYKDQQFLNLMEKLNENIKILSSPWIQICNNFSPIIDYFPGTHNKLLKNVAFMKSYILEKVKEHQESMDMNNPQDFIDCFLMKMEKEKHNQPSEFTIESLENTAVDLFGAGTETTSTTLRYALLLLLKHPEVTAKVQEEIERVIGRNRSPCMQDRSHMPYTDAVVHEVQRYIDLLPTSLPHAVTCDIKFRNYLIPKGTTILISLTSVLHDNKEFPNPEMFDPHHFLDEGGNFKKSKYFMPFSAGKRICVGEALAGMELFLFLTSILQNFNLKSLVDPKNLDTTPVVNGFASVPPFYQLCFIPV
method: Cytochrome P450 Family 2 Subfamily C Member 9 (CYP2C9) small molecule antagonists: luciferase reporter qHTS assay (AID 1671198); note: nearly all actives have a fitted effect of over 50% in size
condition.notes: P450-Glo CYP2C9 enzyme assay, luciferin luminescence; series mostly up to 115 µM
Results filed as inconclusive are left out. Activity calls are given as the source filed them. The call rests on the fitted dose curve; in most records, active means well fitted inhibition curve with a large enough effect in the repeat runs; inconclusive means weak or mixed curves; inactive means no such curve, though single readings can be large or run the other way.
Hi! Could you answer with just one of these? active, inactive

Ask: Hi, do you know how `COc1ccc(O)cc1` came out in this test?
Reply: inactive

Ask: Hi, do you know how `CN/C(=C\[N+](=O)[O-])NCCSCc1ccc(CN(C)C)o1` came out in this test?
Reply: inactive

Ask: Hi, do you know how `O=c1cc[nH]c(=O)[nH]1` came out in this test?
Reply: inactive

Ask: Hi, do you know how CC(C)CC(C)CC(O)CC(C)C (stereo not drawn) came out in this test?
Reply: inactive

Ask: Hi, do you know how CCCCCCCC(=O)OCC(O)CO (stereo not drawn) came out in this test?
Reply: inactive

New cases:
Ask: Hi, do you know how `COC(=O)c1ccc(O)cc1` came out in this test?
Reply: inactive

Ask: Hi, do you know how `CCN(CC)CCOC(=O)c1ccc(N)cc1` came out in this test?
Reply: inactive

Ask: Hi, do you know how `CCCCNC(=O)NS(=O)(=O)c1ccc(N)cc1` came out in this test?
Reply: inactive

Ask: Hi, do you know how `O=[N+]([O-])c1ccc(O)cc1` came out in this test?
Reply: inactive

Ask: Hi, do you know how `CCCCC/C(C=O)=C\c1ccccc1` came out in this test?
Reply: active

Ask: Hi, do you know how COC(=O)C1CCC(C(=O)OC)CC1 (stereo not drawn) came out in this test?
Reply: inactive

Ask: Hi, do you know how `CCCCOCCOCCOC(C)=O` came out in this test?
Reply: inactive

Ask: Hi, do you know how `c1ccc2[nH]c(-c3cscn3)nc2c1` came out in this test?
Reply: inactive

Ask: Hi, do you know how `COc1cc(O)c(C(=O)c2ccccc2)cc1S(=O)(=O)O` came out in this test?
Reply: inactive

Ask: Hi, do you know how CC(O)COc1ccccc1 (stereo not drawn) came out in this test?
Reply: inactive

Ask: Hi, do you know how `C1CNCCN1` came out in this test?
Reply: inactive

Ask: Hi, do you know how `COc1cc2c(c(OC)c1OC)-c1ccc(OC)c(=O)cc1[C@@H](NC(C)=O)CC2` came out in this test?
Reply: inactive

Ask: Hi, do you know how `COc1cc(C=O)ccc1O` came out in this test?
Reply: inactive

Ask: Hi, do you know how `C=C(C)OC(C)=O` came out in this test?
Reply: inactive

---

method: qHTS assay to identify small molecule agonists of the estrogen related receptor (ERR) signaling pathway from Tox21 library (AID 1224849); note: % is set by controls: 0 for no effect and ±100 for the full control effect; nearly all actives have a fitted effect of over 15% in size
condition.notes: ERR reporter cell line, ONE-Glo luciferase, 18 h; at 42.5 µM (top of the series)
readout.name: activity change, positive = activation (%)
Give bare numbers, in %.

Batch: activity change, positive = activation for all items listed.
1. CC(C)Cc1ccc(C(C)C(=O)O)cc1 (configuration not stated)
2. CCCCCCCCOc1ccc(C(=O)c2ccccc2)c(O)c1
3. O=C(O)CCCCC1CCSS1 (configuration not stated)
4. Cc1ccc(O)c(-n2nc3ccccc3n2)c1
5. O=c1cc[nH]c(=O)[nH]1
6. OCCCc1ccccc1
7. CCOC(=O)C(C)(C)Oc1ccc(Cl)cc1

Reply:
1. 3.45
2. -7.25
3. 4.75
4. 147
5. 5.28
6. -1.08
7. 1.46

---

method: qHTS assay to identify small molecule antagonists of the glucocorticoid receptor (GR) signaling pathway - cell viability counter screen (AID 720693); note: % is set by controls: 0 for no effect and ±100 for the full control effect; nearly all actives have a fitted effect of over 55% in size
condition.notes: GR-bla HeLa viability, CellTiter-Glo luminescence, 18 h, with 5 nM dexamethasone present; series mostly up to 58.5 µM
Results filed as inconclusive are left out. The source made the active and inactive calls. Calls come from the whole dose curve; as a rule, active = well fitted cell-killing curve with a large enough effect in the repeat runs; inconclusive = weak or mixed curves, or effect the other way; inactive = no such curve, though single readings can be large or run the other way.
readout.name: outcome

Completed entries (count: 6):
Ask: Entry `O=c1c(-c2ccc(O)cc2)coc2cc(O)cc(O)c12` has what outcome?
Reply: inactive

Ask: Entry CCCCCCCCCCCCCCCCCC(=O)OCC(O)CO (centres undefined) has what outcome?
Reply: inactive

Ask: Entry `CCc1cc(C(N)=S)ccn1` has what outcome?
Reply: inactive

Ask: Entry `O=C(OCc1ccccc1)c1ccccc1` has what outcome?
Reply: inactive

Ask: Entry `COC1=CC(=O)C[C@@H](C)[C@]12Oc1c(Cl)c(OC)cc(OC)c1C2=O` has what outcome?
Reply: inactive

Ask: Entry `COC(=O)c1ccc(O)cc1` has what outcome?
Reply: inactive

Batch: outcome for all items listed.
1. O=C1CCCCCN1
2. COc1ccc(C(=O)c2ccccc2)c(O)c1
3. COCCOCCOC
4. N[C@@H](Cc1c[nH]c2ccccc12)C(=O)O
5. NC(=O)OCC(COC(N)=O)c1ccccc1
6. NC(=O)N1c2ccccc2C=Cc2ccccc21

Reply:
["inactive", "inactive", "inactive", "inactive", "inactive", "inactive"]

Batch: outcome for all items listed.
1. CC1=C(/C=C/C(C)=C/C=C/C(C)=C/C(=O)O)C(C)(C)CCC1
2. CCCCCCCCCCCCCC(=O)OC(C)C

Reply:
["inactive", "inactive"]

---

target.or.test.system: Vitamin D3 receptor (Homo sapiens)
method: qHTS assay to identify small molecule antagonists of the vitamin D receptor (VDR) signaling pathway (AID 743223); note: % is set by controls: 0 for no effect and ±100 for the full control effect
condition.notes: VDR-UAS-bla HEK293T, beta-lactamase FRET ratio, 16 h; series mostly up to 61 µM
Records with an inconclusive call do not appear. Activity calls are given as the source filed them. Calls follow the shape of the dose curve; as a rule, active = well fitted inhibition curve with a large enough effect in the signal ratio in the repeat runs (not every such curve was filed as active); inconclusive = weak or mixed curves, or effect the other way; inactive = no such curve, though single readings can be large or run the other way; the % refers to the signal ratio.
readout.name: outcome

Ask: Entry `c1ccc2[nH]c(-c3cscn3)nc2c1` has what outcome?
Reply: inactive

Ask: Entry `Cc1c(N(C)CS(=O)(=O)O)c(=O)n(-c2ccccc2)n1C` has what outcome?
Reply: inactive

Ask: Entry `OCCCc1ccccc1` has what outcome?
Reply: inactive

Ask: Entry `Nc1ccc(N=Nc2ccccc2)c(N)n1` has what outcome?
Reply: inactive

Ask: Entry `O=C(O)Cc1cccc2ccccc12` has what outcome?
Reply: inactive

Ask: Entry `NC(=O)N/N=C/c1ccc([N+](=O)[O-])o1` has what outcome?
Reply: inactive

Shifting focus to the compound that follows.
Ask: Entry `O=C(O)CN(CC(=O)O)CC(=O)O` has what outcome?
Reply: inactive

---

method: A CellTox Green Cytotoxicity Assay to monitor cytotoxicity in HepG2 cells - 0 hour (AID 1224882); note: % is set by controls: 0 for no effect and ±100 for the full control effect; nearly all actives have a fitted effect of over 35% in size
condition.notes: CellTox Green fluorescence; series mostly up to 76.8 µM
Calls of active or inactive are those of the source. Calls come from the whole dose curve; as a rule, active = well fitted activation curve with a large enough effect in the repeat runs; inconclusive = weak or mixed curves; inactive = flat fitted curve, though single readings scatter.
readout.name: outcome

Completed entries (count: 10):
Ask: Entry `O=c1c(-c2ccc(O)cc2)coc2cc(O)cc(O)c12` has what outcome?
Reply: inactive

Ask: Entry `Cn1cnc2c1c(=O)[nH]c(=O)n2C` has what outcome?
Reply: inactive

Ask: Entry `COC(=O)c1ccc(O)cc1` has what outcome?
Reply: inactive

Ask: Entry `Oc1cccc(O)c1` has what outcome?
Reply: inactive

Ask: Entry `COC1=CC(=O)C[C@@H](C)[C@]12Oc1c(Cl)c(OC)cc(OC)c1C2=O` has what outcome?
Reply: inactive

Ask: Entry `Cc1cnc(NC(=O)C2=C(O)c3ccccc3S(=O)(=O)N2C)s1` has what outcome?
Reply: inactive

Ask: Entry `NC(=O)NO` has what outcome?
Reply: inactive

Ask: Entry `Cc1c(N(C)C)c(=O)n(-c2ccccc2)n1C` has what outcome?
Reply: inactive

Ask: Entry CC(C)Cc1ccc(C(C)C(=O)O)cc1 (centres undefined) has what outcome?
Reply: inactive

Ask: Entry `CC(=O)OC/C=C(C)/C=C/C=C(C)/C=C/C1=C(C)CCCC1(C)C` has what outcome?
Reply: inactive

Batch: outcome for all items listed.
1. OC[C@@H](O)[C@@H](O)[C@H](O)[C@H](O)CO
2. C=CCOC(=O)CC(C)C
3. NC(N)=NC(N)=NCCc1ccccc1
4. COC(=O)C1CCC(C(=O)OC)CC1 (centres undefined)

Reply:
["inactive", "inactive", "inactive", "inactive"]
